Task for the reader: assign each of the following sequences its reported shrunken log2 fold change.
System: Escherichia coli TOP10
assayName: shrunken log2 fold change of peptide-encoding DNA abundance (4.5 h post-induction vs induction); higher = less antimicrobial activity (less host growth inhibition)
measurementConditions: time post-induction: 4.5 h; library: site-saturation at positions 5, 18, 19, 20
Give your answer as a number; write no unit.

input: For the sequence RRIRLRPPRLPRPRPRPQGHPRP , what shrunken log2 fold change is on record?
output: 0.137

input: For the sequence RRIRMRPPRLPRPRPRPFGWPRP , what shrunken log2 fold change is on record?
output: 0.32

input: For the sequence RRIRCRPPRLPRPRPRPEWYPRP , what shrunken log2 fold change is on record?
output: -0.256

input: For the sequence RRIRRRPPRLPRPRPRPVKDPRP , what shrunken log2 fold change is on record?
output: -0.0534

input: For the sequence RRIRKRPPRLPRPRPRPHHTPRP , what shrunken log2 fold change is on record?
output: -0.254

input: For the sequence RRIRCRPPRLPRPRPRPMWMPRP , what shrunken log2 fold change is on record?
output: 0.174

input: For the sequence RRIRCRPPRLPRPRPRPFYQPRP , what shrunken log2 fold change is on record?
output: -0.163

input: For the sequence RRIRIRPPRLPRPRPRPHGMPRP , what shrunken log2 fold change is on record?
output: 0.0429

input: For the sequence RRIRFRPPRLPRPRPRPQWFPRP , what shrunken log2 fold change is on record?
output: -0.344

input: For the sequence RRIRKRPPRLPRPRPRPFYAPRP , what shrunken log2 fold change is on record?
output: -0.0279

input: For the sequence RRIRVRPPRLPRPRPRPWEHPRP , what shrunken log2 fold change is on record?
output: 0.0927

input: For the sequence RRIRQRPPRLPRPRPRPCPEPRP , what shrunken log2 fold change is on record?
output: -0.249

input: For the sequence RRIRYRPPRLPRPRPRPVQWPRP , what shrunken log2 fold change is on record?
output: -0.126

input: For the sequence RRIRDRPPRLPRPRPRPRIGPRP , what shrunken log2 fold change is on record?
output: -0.00724

input: For the sequence RRIRKRPPRLPRPRPRPKGYPRP , what shrunken log2 fold change is on record?
output: -0.00627

input: For the sequence RRIRGRPPRLPRPRPRPEKCPRP , what shrunken log2 fold change is on record?
output: 0.599

input: For the sequence RRIRFRPPRLPRPRPRPWACPRP , what shrunken log2 fold change is on record?
output: -0.15

input: For the sequence RRIRQRPPRLPRPRPRPQMPPRP , what shrunken log2 fold change is on record?
output: -1.26

input: For the sequence RRIRYRPPRLPRPRPRPGFKPRP , what shrunken log2 fold change is on record?
output: -0.579

input: For the sequence RRIRYRPPRLPRPRPRPGYGPRP , what shrunken log2 fold change is on record?
output: -0.541

input: For the sequence RRIRLRPPRLPRPRPRPVVNPRP , what shrunken log2 fold change is on record?
output: -0.0535

input: For the sequence RRIRQRPPRLPRPRPRPDEAPRP , what shrunken log2 fold change is on record?
output: -0.0116

input: For the sequence RRIRFRPPRLPRPRPRPALRPRP , what shrunken log2 fold change is on record?
output: 0.276

input: For the sequence RRIRARPPRLPRPRPRPMSVPRP , what shrunken log2 fold change is on record?
output: 0.121

input: For the sequence RRIRKRPPRLPRPRPRPKLRPRP , what shrunken log2 fold change is on record?
output: -0.0198

input: For the sequence RRIRNRPPRLPRPRPRPVSCPRP , what shrunken log2 fold change is on record?
output: -0.129

input: For the sequence RRIRWRPPRLPRPRPRPDWPPRP , what shrunken log2 fold change is on record?
output: 0.332

input: For the sequence RRIRKRPPRLPRPRPRPQLHPRP , what shrunken log2 fold change is on record?
output: 0.0197

---

Test system: Escherichia coli TOP10
assayName: shrunken log2 fold change of peptide-encoding DNA abundance (4.5 h post-induction vs induction); higher = less antimicrobial activity (less host growth inhibition)
measurementConditions: time post-induction: 4.5 h; library: site-saturation at positions 5, 18, 19, 20
assayReadout: shrunken log2 fold change
Give your answer as a number; write no unit.

input: Request: shrunken log2 fold change, test system Escherichia coli TOP10, entry RRIRCRPPRLPRPRPRPKVLPRP
output: 0.0115

input: Request: shrunken log2 fold change, test system Escherichia coli TOP10, entry RRIRFRPPRLPRPRPRPDLEPRP
output: -0.0811

input: Request: shrunken log2 fold change, test system Escherichia coli TOP10, entry RRIRVRPPRLPRPRPRPFGVPRP
output: -0.179

input: Request: shrunken log2 fold change, test system Escherichia coli TOP10, entry RRIRPRPPRLPRPRPRPWIDPRP
output: -0.35

input: Request: shrunken log2 fold change, test system Escherichia coli TOP10, entry RRIRHRPPRLPRPRPRPIGRPRP
output: -0.00982

input: Request: shrunken log2 fold change, test system Escherichia coli TOP10, entry RRIRWRPPRLPRPRPRPDEDPRP
output: 0.299

input: Request: shrunken log2 fold change, test system Escherichia coli TOP10, entry RRIRLRPPRLPRPRPRPGHWPRP
output: 0.279

input: Request: shrunken log2 fold change, test system Escherichia coli TOP10, entry RRIRGRPPRLPRPRPRPICTPRP
output: 1.08

input: Request: shrunken log2 fold change, test system Escherichia coli TOP10, entry RRIRWRPPRLPRPRPRPVGFPRP
output: 0.558

input: Request: shrunken log2 fold change, test system Escherichia coli TOP10, entry RRIRLRPPRLPRPRPRPCIEPRP
output: -0.256

input: Request: shrunken log2 fold change, test system Escherichia coli TOP10, entry RRIRHRPPRLPRPRPRPYCAPRP
output: -0.346

input: Request: shrunken log2 fold change, test system Escherichia coli TOP10, entry RRIRRRPPRLPRPRPRPFRKPRP
output: -0.00961

input: Request: shrunken log2 fold change, test system Escherichia coli TOP10, entry RRIRVRPPRLPRPRPRPWPDPRP
output: 0.033

input: Request: shrunken log2 fold change, test system Escherichia coli TOP10, entry RRIRWRPPRLPRPRPRPQIAPRP
output: 0.141

input: Request: shrunken log2 fold change, test system Escherichia coli TOP10, entry RRIRSRPPRLPRPRPRPLSAPRP
output: 0.234

input: Request: shrunken log2 fold change, test system Escherichia coli TOP10, entry RRIRFRPPRLPRPRPRPPKGPRP
output: -0.0971

input: Request: shrunken log2 fold change, test system Escherichia coli TOP10, entry RRIRPRPPRLPRPRPRPCDHPRP
output: -0.128

input: Request: shrunken log2 fold change, test system Escherichia coli TOP10, entry RRIRPRPPRLPRPRPRPFVNPRP
output: -0.196

input: Request: shrunken log2 fold change, test system Escherichia coli TOP10, entry RRIRLRPPRLPRPRPRPLDGPRP
output: -0.0562

input: Request: shrunken log2 fold change, test system Escherichia coli TOP10, entry RRIRWRPPRLPRPRPRPNREPRP
output: -0.0677

---

Tested on: Escherichia coli TOP10
assayName: shrunken log2 fold change of peptide-encoding DNA abundance (4.5 h post-induction vs induction); higher = less antimicrobial activity (less host growth inhibition)
measurementConditions: time post-induction: 4.5 h; library: site-saturation at positions 5, 18, 19, 20
assayReadout: shrunken log2 fold change
Give your answer as a number; write no unit.

input: For the sequence RRIRTRPPRLPRPRPRPIEAPRP , what shrunken log2 fold change is on record?
output: -0.199

input: For the sequence RRIRQRPPRLPRPRPRPHAEPRP , what shrunken log2 fold change is on record?
output: -0.0176

input: For the sequence RRIRWRPPRLPRPRPRPVKIPRP , what shrunken log2 fold change is on record?
output: -0.142

input: For the sequence RRIRIRPPRLPRPRPRPNPYPRP , what shrunken log2 fold change is on record?
output: -0.659

---

Test system: Escherichia coli TOP10;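 note: peptides expressed intracellularly from a pBAD plasmid library in pooled LB shake-flask culture, induced with 0.3% L-arabinose, DNA abundance read by NGS, three biological replicates, DESeq2 with apeglm shrinkage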
assayName: shrunken log2 fold change of peptide-encoding DNA abundance (4.5 h post-induction vs induction); higher = less antimicrobial activity (less host growth inhibition)
measurementConditions: time post-induction: 4.5 h; library: site-saturation at positions 5, 18, 19, 20
Task for the reader: assign each of the following sequences its reported shrunken log2 fold change.

input: For the sequence RRIRKRPPRLPRPRPRPSLFPRP , what shrunken log2 fold change is on record?
output: 0.125

input: For the sequence RRIRNRPPRLPRPRPRPPNIPRP , what shrunken log2 fold change is on record?
output: -0.226

input: For the sequence RRIRSRPPRLPRPRPRPQQRPRP , what shrunken log2 fold change is on record?
output: 0.153

input: For the sequence RRIRERPPRLPRPRPRPIACPRP , what shrunken log2 fold change is on record?
output: -0.23

input: For the sequence RRIRARPPRLPRPRPRPKPYPRP , what shrunken log2 fold change is on record?
output: 0.0727

input: For the sequence RRIRARPPRLPRPRPRPATEPRP , what shrunken log2 fold change is on record?
output: 0.795

input: For the sequence RRIRPRPPRLPRPRPRPEWCPRP , what shrunken log2 fold change is on record?
output: -0.0771

input: For the sequence RRIRGRPPRLPRPRPRPRMWPRP , what shrunken log2 fold change is on record?
output: 0.223

input: For the sequence RRIRVRPPRLPRPRPRPRKDPRP , what shrunken log2 fold change is on record?
output: 0.0324

input: For the sequence RRIRYRPPRLPRPRPRPSEDPRP , what shrunken log2 fold change is on record?
output: -0.123

input: For the sequence RRIRMRPPRLPRPRPRPLFEPRP , what shrunken log2 fold change is on record?
output: 0.633

input: For the sequence RRIRHRPPRLPRPRPRPVDKPRP , what shrunken log2 fold change is on record?
output: -0.308

input: For the sequence RRIRLRPPRLPRPRPRPGKAPRP , what shrunken log2 fold change is on record?
output: 0.0651

input: For the sequence RRIRIRPPRLPRPRPRPWMMPRP , what shrunken log2 fold change is on record?
output: -0.178

input: For the sequence RRIRTRPPRLPRPRPRPSRTPRP , what shrunken log2 fold change is on record?
output: 0.305

input: For the sequence RRIRVRPPRLPRPRPRPDEDPRP , what shrunken log2 fold change is on record?
output: 0.185

input: For the sequence RRIRERPPRLPRPRPRPTAQPRP , what shrunken log2 fold change is on record?
output: 0.416

input: For the sequence RRIRQRPPRLPRPRPRPVQYPRP , what shrunken log2 fold change is on record?
output: -0.0137

input: For the sequence RRIRWRPPRLPRPRPRPKTTPRP , what shrunken log2 fold change is on record?
output: -0.0128

input: For the sequence RRIRYRPPRLPRPRPRPKHRPRP , what shrunken log2 fold change is on record?
output: 0.0727

input: For the sequence RRIRRRPPRLPRPRPRPKTWPRP , what shrunken log2 fold change is on record?
output: -0.0361

input: For the sequence RRIRGRPPRLPRPRPRPVTEPRP , what shrunken log2 fold change is on record?
output: 0.706

input: For the sequence RRIRHRPPRLPRPRPRPNWSPRP , what shrunken log2 fold change is on record?
output: -0.0165

input: For the sequence RRIRQRPPRLPRPRPRPSRDPRP , what shrunken log2 fold change is on record?
output: -0.141

input: For the sequence RRIRPRPPRLPRPRPRPSQFPRP , what shrunken log2 fold change is on record?
output: -0.0669

input: For the sequence RRIRNRPPRLPRPRPRPFWDPRP , what shrunken log2 fold change is on record?
output: -0.0775

input: For the sequence RRIRQRPPRLPRPRPRPKAVPRP , what shrunken log2 fold change is on record?
output: -0.00151

input: For the sequence RRIRNRPPRLPRPRPRPMHPPRP , what shrunken log2 fold change is on record?
output: -0.212

input: For the sequence RRIRIRPPRLPRPRPRPNTQPRP , what shrunken log2 fold change is on record?
output: -0.295

input: For the sequence RRIRFRPPRLPRPRPRPWATPRP , what shrunken log2 fold change is on record?
output: 0.0109

input: For the sequence RRIRKRPPRLPRPRPRPYPAPRP , what shrunken log2 fold change is on record?
output: 0.289

input: For the sequence RRIRGRPPRLPRPRPRPECHPRP , what shrunken log2 fold change is on record?
output: 1.62

input: For the sequence RRIRRRPPRLPRPRPRPNCRPRP , what shrunken log2 fold change is on record?
output: 0.563

input: For the sequence RRIRSRPPRLPRPRPRPYREPRP , what shrunken log2 fold change is on record?
output: 0.0503

input: For the sequence RRIRIRPPRLPRPRPRPNLQPRP , what shrunken log2 fold change is on record?
output: -0.285

input: For the sequence RRIRPRPPRLPRPRPRPGYAPRP , what shrunken log2 fold change is on record?
output: 0.177

input: For the sequence RRIRYRPPRLPRPRPRPNTKPRP , what shrunken log2 fold change is on record?
output: -0.0891

input: For the sequence RRIRVRPPRLPRPRPRPRGWPRP , what shrunken log2 fold change is on record?
output: 0.666

input: For the sequence RRIRYRPPRLPRPRPRPDAEPRP , what shrunken log2 fold change is on record?
output: -0.0535

input: For the sequence RRIRKRPPRLPRPRPRPCNPPRP , what shrunken log2 fold change is on record?
output: -0.00652

input: For the sequence RRIRCRPPRLPRPRPRPVSFPRP , what shrunken log2 fold change is on record?
output: -0.228

input: For the sequence RRIRQRPPRLPRPRPRPQPPPRP , what shrunken log2 fold change is on record?
output: 0.194

input: For the sequence RRIRTRPPRLPRPRPRPDMLPRP , what shrunken log2 fold change is on record?
output: 0.035

input: For the sequence RRIRIRPPRLPRPRPRPHMDPRP , what shrunken log2 fold change is on record?
output: -0.103

input: For the sequence RRIRNRPPRLPRPRPRPIWMPRP , what shrunken log2 fold change is on record?
output: 0.178

input: For the sequence RRIRGRPPRLPRPRPRPQWPPRP , what shrunken log2 fold change is on record?
output: 0.475

These measurements were taken from the supplement of paper PMC9112550.
